This collection of values is drawn from the Kinase Knowledgebase extract (Sharma et al. 2016).

target: PIK3CA (human) (UniProt P42336)
Sequence (P42336 whole entry, looked up): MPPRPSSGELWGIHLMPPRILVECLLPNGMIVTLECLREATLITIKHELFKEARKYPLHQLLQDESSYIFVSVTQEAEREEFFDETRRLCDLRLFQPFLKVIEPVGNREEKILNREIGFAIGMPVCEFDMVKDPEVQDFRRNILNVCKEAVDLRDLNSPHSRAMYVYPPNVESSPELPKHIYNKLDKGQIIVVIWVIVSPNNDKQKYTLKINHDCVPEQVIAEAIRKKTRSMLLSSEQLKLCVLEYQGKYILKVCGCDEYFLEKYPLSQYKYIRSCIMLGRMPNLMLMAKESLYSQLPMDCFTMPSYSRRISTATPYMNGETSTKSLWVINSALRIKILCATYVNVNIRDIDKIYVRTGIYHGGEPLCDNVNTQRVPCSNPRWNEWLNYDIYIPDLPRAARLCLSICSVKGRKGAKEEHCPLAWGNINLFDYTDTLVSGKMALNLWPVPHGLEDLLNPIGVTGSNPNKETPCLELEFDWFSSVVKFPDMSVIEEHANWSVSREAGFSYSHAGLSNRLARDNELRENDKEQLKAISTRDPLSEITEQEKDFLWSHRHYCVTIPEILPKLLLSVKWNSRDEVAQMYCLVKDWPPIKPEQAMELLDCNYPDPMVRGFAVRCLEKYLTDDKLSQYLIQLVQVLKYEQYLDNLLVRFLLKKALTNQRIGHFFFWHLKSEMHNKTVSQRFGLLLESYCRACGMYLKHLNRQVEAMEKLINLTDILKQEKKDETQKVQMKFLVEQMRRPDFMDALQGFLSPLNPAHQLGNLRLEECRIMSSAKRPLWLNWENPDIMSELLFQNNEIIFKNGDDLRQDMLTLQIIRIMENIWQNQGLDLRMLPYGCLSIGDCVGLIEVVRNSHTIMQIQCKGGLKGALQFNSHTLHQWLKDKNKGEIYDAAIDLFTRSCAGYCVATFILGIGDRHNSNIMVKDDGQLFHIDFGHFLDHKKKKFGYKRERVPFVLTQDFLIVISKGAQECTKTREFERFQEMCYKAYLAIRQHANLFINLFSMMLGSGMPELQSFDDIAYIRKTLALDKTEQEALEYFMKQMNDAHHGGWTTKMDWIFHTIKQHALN
# key: entry, value: IC50
readout_name: IC50 (nM)

* Cn1cc(-c2nc(N)nc3c2-c2cc(NS(=O)(=O)c4ccc(F)cc4F)c(Cl)cc2CC3)cn1 | 6.3
* Nc1nc2c(c(-c3ccccc3)n1)-c1cc(S(=O)(=O)N3CCOCC3)c(Cl)cc1CC2 | 3.2
* CN(C)S(=O)(=O)c1cccc(-c2nc(N)nc3c2-c2cc(NS(=O)(=O)c4ccc(F)cc4F)c(Cl)cc2CC3)c1 | 3.2
* NC(=O)c1ccc(-c2nc(N)nc3c2-c2cc(NS(=O)(=O)c4ccc(F)cc4F)c(Cl)cc2CC3)cc1 | 4

----------
target: PIK3CA (human) (UniProt P42336); test: Assessment of PIK3CA Kinase Activity
pIC50: −log10 of the molar value.
readout_name: pIC50

• Nc1nc2c(c(-c3ccncc3)n1)-c1cc(NS(=O)(=O)c3ccc(F)cc3F)c(Cl)cc1CC2 = 9.00
• CC(=O)Nc1cccc(-c2nc(N)nc3c2-c2cc(S(=O)(=O)N4CCOCC4)c(Cl)cc2CC3)c1 = 7.60
• N#Cc1cccc(S(=O)(=O)Nc2cc3c(cc2Cl)CCc2nc(N)nc(-c4ccncc4)c2-3)c1 = 6.50
• Cn1cc(-c2nc(N)nc3c2-c2cc(NS(=O)(=O)c4ccccc4)c(Cl)cc2CC3)cn1 = 8.30
• N#Cc1ccc(S(=O)(=O)Nc2cc3c(cc2Cl)CCc2nc(N)nc(-c4ccncc4)c2-3)cc1 = 8.80
• COc1ccc(-c2nc(N)nc3c2-c2cc(NS(=O)(=O)c4ccc(F)cc4F)c(Cl)cc2CC3)cc1 = 8.70
• Nc1nc2c(c(-c3ccc(F)cc3)n1)-c1cc(NS(=O)(=O)c3ccc(F)cc3F)c(Cl)cc1CC2 = 8.60
• CNC(=O)c1ccc(-c2nc(N)nc3c2-c2cc(S(=O)(=O)N4CCOCC4)c(Cl)cc2CC3)cc1 = 8.10
